// provenance: the array DNA melting data of Ke et al. (doi:10.1101/2024.01.08.574731)

Record form. Attribute: folding enthalpy. Fill in for each entry.
experiment: folding enthalpy; higher = less favourable; fluorescence melt of hairpins on a sequencing array, two-state fit; conditions: sodium 0.088 M
Give bare numbers, in kcal/mol.

Below are worked cases with known answers.
>  <seq>
GGCACTGGAAACAATGCC ((((.((....)).))))

>  <unit.label>
kcal/mol

>  <folding enthalpy>
-29.6

$$$$
>  <seq>
CGTCCGGAAACGGACACG ((((((....)))..)))

>  <unit.label>
kcal/mol

>  <folding enthalpy>
-8.11

$$$$

Provide folding enthalpy values for the following items, in order.
1. GCATTAGGAAACTAACGC ((.((((....)))).))
2. GAATTGGGAAACCAATCC (.(((((....))))).)
3. GGCAGGGGAAACCTTGCC ((((.((....)).))))
4. GGATTCGGAAACGGATTC (.((.((....)).)).)

## Result
-22.6
-14.6
-49.2
-16.7

----------
test: folding enthalpy; higher = less favourable; fluorescence melt of hairpins on a sequencing array, two-state fit; conditions: sodium 0.088 M
Can you tell me folding enthalpy for the items I'm about to list?
Provide a numeric answer, followed by its unit.

Past entries and their recorded results:
>  <seq>
CGGGGACGGAAACGTCCG (((..(((....))))))

>  <recorded.endpoint>
folding enthalpy

>  <recorded.measurement>
-7.9 kcal/mol

$$$$
>  <seq>
GAGGCCGAAAGGCAGCTC ((((((....)))..)))

>  <recorded.endpoint>
folding enthalpy

>  <recorded.measurement>
-13.7 kcal/mol

$$$$
>  <seq>
GAGCTTGGAAACGAGCTC (((((.(....).)))))

>  <recorded.endpoint>
folding enthalpy

>  <recorded.measurement>
-45.1 kcal/mol

$$$$
>  <seq>
GCCGTGCGAAAGCGCCGC ((.(.((....)).).))

>  <recorded.endpoint>
folding enthalpy

>  <recorded.measurement>
-14.4 kcal/mol

$$$$
>  <seq>
GATCCAACGTGGATC ((((((...))))))

>  <recorded.endpoint>
folding enthalpy

>  <recorded.measurement>
-31.9 kcal/mol

$$$$

Record folding enthalpy for all entries; do not skip any.
1. GTGTGCGAAAGCATCCAC ((((((....)))..)))
2. GGATCAGGAAACCGATCC (((((.(....).)))))
3. GCGTTTGGAAACAGATGC ((.(.((....)).).))
4. GGCGAAGCGAAAGCTGCC (((..(((....))))))
5. GTCACCGAAAGGTCGGAC ((((((....)))..)))
6. CATACGAAAGTATG (((((....)))))

## Result
["-11 kcal/mol", "-39 kcal/mol", "-17.6 kcal/mol", "-17.7 kcal/mol", "-16 kcal/mol", "-25.1 kcal/mol"]

Record folding enthalpy per entry; entries follow.
1. GCGGGTGGAAACACCTGC ((.((((....)))).))
2. GAGTCAGGAAACTGGCTC (((.(((....))).)))
3. GATCTCTAGAGAGATC ((((((....))))))

## Result
1: -37.5 kcal/mol; 2: -43.1 kcal/mol; 3: -40.9 kcal/mol

Consider the following items and state reported folding enthalpy for each.
1. GTCCGCGAAAGCGAGAC ((((((....))).)))
2. GCGAGTGCGAAAGCACGC (((..(((....))))))
3. GGTCCTGGAAACGGGATC (.(((.(....).))).)
4. GGCTAAGAAATTAGCC ((((((....))))))
5. GCAACCGAAAGGTGATGC ((((((....)))..)))
6. CGTGCGGAAACGCAGACG ((((((....)))..)))
7. GTGTACGAAAGTACCCAC ((((((....)))..)))
8. GTGAACGAAAGTTATCAC ((((((....)))..)))

## Result
1: -14.2 kcal/mol; 2: -9.67 kcal/mol; 3: -28.5 kcal/mol; 4: -27 kcal/mol; 5: -18.5 kcal/mol; 6: -15.7 kcal/mol; 7: -10.3 kcal/mol; 8: -13.2 kcal/mol

----------
experiment: melting temperature; fluorescence melt of hairpins on a sequencing array, two-state fit, raised by 9.35 °C to match UV melts; settings: sodium 0.088 M
recorded.endpoint: Tm (°C)
One number for each entry, in °C.

Example results:
>  <seq>
GCTACGCGAAAGCGCGGC ((..(((....)))..))

>  <recorded.endpoint>
Tm

>  <recorded.measurement>
51

$$$$
>  <seq>
GCAGGCGAAAGCCTCTGC ((((((....)))..)))

>  <recorded.endpoint>
Tm

>  <recorded.measurement>
46.7

$$$$
>  <seq>
GTTGCCGGAAACGGTAGC (.(.(((....))).).)

>  <recorded.endpoint>
Tm

>  <recorded.measurement>
39.7

$$$$
>  <seq>
GCGGATTCCGC ((((...))))

>  <recorded.endpoint>
Tm

>  <recorded.measurement>
54.3

$$$$

Below are some sequences; for each one, tell me its Tm.
1. GATCATGGCGATGATC ((((((....))))))
2. GATATACGAAAGTAAATC (((.(((....))).)))

## Result
51.5
33

----------
assay: melting temperature; fluorescence melt of hairpins on a sequencing array, two-state fit, raised by 9.35 °C to match UV melts; settings: sodium 0.088 M
# if value of Tm reaches 50 °C, tag 1.0; if it stays below, tag 0.0

Worked cases, answers included:
>  <seq>
GGCGTCGGAAACGACGTC (.(((((....))))).)

>  <qualitative.label>
1.0

$$$$
>  <seq>
GCATTCGAAAGAACATGC ((((((....)))..)))

>  <qualitative.label>
0.0

$$$$
>  <seq>
GTTGGAGGAAACTCCAGC (.(((((....))))).)

>  <qualitative.label>
0.0

$$$$
>  <seq>
GCGTACGGACGC ((((....))))

>  <qualitative.label>
1.0

$$$$
>  <seq>
GGGACCGAAAGGTTACCC ((((((....)))..)))

>  <qualitative.label>
0.0

$$$$
>  <seq>
GATCCGGTCACGGATC ((((((....))))))

>  <qualitative.label>
1.0

$$$$
>  <seq>
GCATCGCGAAAGCGTCGC ((..(((....)))..))

>  <qualitative.label>
0.0

$$$$
>  <seq>
GCGTGGCGAAAGCCCCGC (((.(((....))).)))

>  <qualitative.label>
1.0

$$$$
>  <seq>
GCACTAGCGAAAGCTTGC (((..(((....))))))

>  <qualitative.label>
0.0

$$$$
>  <seq>
GCGATGGGAAACCATCAC (.(((((....))))).)

>  <qualitative.label>
0.0

$$$$

## Task Hi, just wondering whether GCTCCACGAAAGTGAGC (((.(((....)))))) shows Tm of 50 °C or higher.
## Result 1.0

## Task Threshold query (Tm >= 50 °C) on GCGTTTGGAAACAGATGC ((.(.((....)).).))
## Result 0.0

## Task Tell me whether Tm is at least 50 °C here: GCCGGTCGAAAGACTGGC (((.(((....))).)))
## Result 1.0

## Task In plain terms: is recorded Tm at least 50 °C for GATCATCTGGATGATC ((((((....)))))) ?
## Result 1.0

## Task For this sequence, is measured Tm 50 °C or higher? GCAACGCGAAAGCATAGC ((.(.((....)).).))
## Result 0.0

## Task Hi team, for GATCCCCGCTGGGATC ((((((....)))))) , is the recorded Tm at or above 50 °C?
## Result 1.0

## Task Given GCCTTCGGAAACAAAGGC (((((.(....).))))) , state whether its Tm is at least 50 °C.
## Result 0.0

## Task # bool: Tm of ATGTCGAAAGACAT (((((....))))) >= 50 °C
## Result 1.0

## Task Form field: Tm at least 50 °C? Entry: GAGGTTGGAAACAGCTTC ((.(.((....)).).))
## Result 0.0

## Task Could you verify whether the entry GTGGTCGAAAGACGTCAC ((((((....)))..))) shows Tm of no less than 50 °C?
## Result 0.0

## Task Could you tell me if the measured Tm of GACCTACGAAAGTAAGTC (((.(((....))).))) reaches 50 °C or more?
## Result 0.0

## Task Is the recorded value of Tm equal to or greater than 50 °C for this sequence? GATCCGTCATCGGATC ((((((....))))))
## Result 1.0

## Task Record GATTTGCCGAAAGGCATC (((..(((....)))))) ; criterion: Tm no lower than 50 °C. Met?
## Result 0.0

## Task Reported Tm at or above 50 °C? GAAGATGAAAATCTTC ((((((....))))))
## Result 0.0
